# Target Entity: aldose reductase (Homo sapiens)
# Construct: partially purified aldose reductase preparation from human placenta; from tissue; host or cells: human placenta
# Assay Procedure: aldose reductase activity, partially purified preparation from human placenta
# Assay type: biochemical
# Cond: 10^-6 M
Readout Name: inhibition at 1 µM (%)

Consider the worked cases shown below.
Tell me measured inhibition at 1 µM for CCOc1cc(C2SC(=O)NC2=O)ccc1OCCC(C)C (centres unmarked) please.
34

Tell me measured inhibition at 1 µM for CCCCCOc1ccc(C2SC(=O)NC2=O)cc1OCC (centres unmarked) please.
34.6

A. CCCCOc1ccc(C2SC(=O)NC2=O)cc1OCC (centres unmarked)
B. Cc1ccc(C2SC(=O)NC2=O)cc1C (centres unmarked)
Select one: A or B . Criterion: greater recorded inhibition at 1 µM. Identify your pick by its label.
A
